Biological target: T1, Vacuolar Protein Sorting-Associated 26B (AtVPS26B) (Arabidopsis thaliana, UniProt Q9T091 1-303)
T1 construct: AtVPS26B, Arabidopsis thaliana, UniProt Q9T091, gene At4g27690; the His-SUMO tag may have been kept in mass photometry (surmise); also called VSP26B; source: E. coli BL21 (DE3), purified (nickel resin, ULP1 cleavage, second nickel, SEC)
T1 sequence (Q9T091 whole entry): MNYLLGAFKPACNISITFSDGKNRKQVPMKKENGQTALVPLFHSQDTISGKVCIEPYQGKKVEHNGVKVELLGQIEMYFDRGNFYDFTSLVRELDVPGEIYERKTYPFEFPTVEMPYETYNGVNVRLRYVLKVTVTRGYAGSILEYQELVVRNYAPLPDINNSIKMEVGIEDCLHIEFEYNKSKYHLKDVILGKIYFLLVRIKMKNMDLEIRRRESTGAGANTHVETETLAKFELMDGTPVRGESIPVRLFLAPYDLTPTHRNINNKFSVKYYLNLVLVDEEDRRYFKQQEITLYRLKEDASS
Test: MST; 20 nM fluorescence-labelled protein (RED-NHS or RED-MALEIMIDE), ligand dilution series, 25 °C, PBS pH 7.4, 0.05% Tween-20; apparent Kd; averages of 2 to 4 experiments
Settings: both partners purified
measured quantity: pKd
Note on pKd: it is the negative log10 of concentration, concentration in mol/L.

[ask] Request the reported pKd associated with GGGAMHKEGYSFSSPRLSSVQGSDDPFYQEHMSKSSRCSSPG (N-terminal GGG added to the peptide; AtRGS1 C-terminal tail, Arabidopsis thaliana, UniProt Q8H1F2, residues A421-G459; Purity 99%; also called unphosphorylated C-tail; source: synthetic peptide (UNC Peptide Core Facility)) [AtRGS1 C tail peptide (A421-G459), unphosphorylated]
[reply] 6.60
